# system-under-test: BCRP (Homo sapiens, UniProt Q9UNQ0)
# Sequence (Q9UNQ0 1-655): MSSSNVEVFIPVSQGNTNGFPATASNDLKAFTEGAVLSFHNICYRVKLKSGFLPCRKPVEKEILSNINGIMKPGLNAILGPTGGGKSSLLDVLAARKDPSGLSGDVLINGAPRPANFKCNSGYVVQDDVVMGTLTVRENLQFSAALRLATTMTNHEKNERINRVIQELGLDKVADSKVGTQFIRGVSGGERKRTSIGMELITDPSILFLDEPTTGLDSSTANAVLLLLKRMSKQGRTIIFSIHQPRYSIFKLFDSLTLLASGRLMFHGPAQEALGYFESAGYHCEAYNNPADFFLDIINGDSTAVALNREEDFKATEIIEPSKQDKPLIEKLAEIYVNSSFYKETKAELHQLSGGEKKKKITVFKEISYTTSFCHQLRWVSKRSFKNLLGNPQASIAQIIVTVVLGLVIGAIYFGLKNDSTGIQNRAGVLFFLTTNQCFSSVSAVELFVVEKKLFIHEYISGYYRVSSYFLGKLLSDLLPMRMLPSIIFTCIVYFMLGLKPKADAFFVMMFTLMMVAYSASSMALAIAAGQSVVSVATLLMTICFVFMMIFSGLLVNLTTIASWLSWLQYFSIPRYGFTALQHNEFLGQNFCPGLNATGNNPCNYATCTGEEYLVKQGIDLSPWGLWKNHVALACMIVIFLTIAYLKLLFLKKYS
# protocol-description: ABC efflux transporter inhibitor test on Caco-2 cells (E3S efflux)
# details: human, Caco-2 cells, probe E3S (10 µM)
experimental-endpoint: inhibition at 3 μM
Value and unit, in that order.

Answer with the recorded inhibition at 3 μM of COc1cc(N2CCC3(CCN(C)CC3)CC2)ccc1Nc1ncc(Cl)c(Nc2ccccc2P(C)(C)=O)n1 only.
50.9%

###

# system-under-test: EGFR^L858R/T790M (Homo sapiens, UniProt P00533, L858R/T790M)
# Sequence (P00533 25-1210 T790M/L858R): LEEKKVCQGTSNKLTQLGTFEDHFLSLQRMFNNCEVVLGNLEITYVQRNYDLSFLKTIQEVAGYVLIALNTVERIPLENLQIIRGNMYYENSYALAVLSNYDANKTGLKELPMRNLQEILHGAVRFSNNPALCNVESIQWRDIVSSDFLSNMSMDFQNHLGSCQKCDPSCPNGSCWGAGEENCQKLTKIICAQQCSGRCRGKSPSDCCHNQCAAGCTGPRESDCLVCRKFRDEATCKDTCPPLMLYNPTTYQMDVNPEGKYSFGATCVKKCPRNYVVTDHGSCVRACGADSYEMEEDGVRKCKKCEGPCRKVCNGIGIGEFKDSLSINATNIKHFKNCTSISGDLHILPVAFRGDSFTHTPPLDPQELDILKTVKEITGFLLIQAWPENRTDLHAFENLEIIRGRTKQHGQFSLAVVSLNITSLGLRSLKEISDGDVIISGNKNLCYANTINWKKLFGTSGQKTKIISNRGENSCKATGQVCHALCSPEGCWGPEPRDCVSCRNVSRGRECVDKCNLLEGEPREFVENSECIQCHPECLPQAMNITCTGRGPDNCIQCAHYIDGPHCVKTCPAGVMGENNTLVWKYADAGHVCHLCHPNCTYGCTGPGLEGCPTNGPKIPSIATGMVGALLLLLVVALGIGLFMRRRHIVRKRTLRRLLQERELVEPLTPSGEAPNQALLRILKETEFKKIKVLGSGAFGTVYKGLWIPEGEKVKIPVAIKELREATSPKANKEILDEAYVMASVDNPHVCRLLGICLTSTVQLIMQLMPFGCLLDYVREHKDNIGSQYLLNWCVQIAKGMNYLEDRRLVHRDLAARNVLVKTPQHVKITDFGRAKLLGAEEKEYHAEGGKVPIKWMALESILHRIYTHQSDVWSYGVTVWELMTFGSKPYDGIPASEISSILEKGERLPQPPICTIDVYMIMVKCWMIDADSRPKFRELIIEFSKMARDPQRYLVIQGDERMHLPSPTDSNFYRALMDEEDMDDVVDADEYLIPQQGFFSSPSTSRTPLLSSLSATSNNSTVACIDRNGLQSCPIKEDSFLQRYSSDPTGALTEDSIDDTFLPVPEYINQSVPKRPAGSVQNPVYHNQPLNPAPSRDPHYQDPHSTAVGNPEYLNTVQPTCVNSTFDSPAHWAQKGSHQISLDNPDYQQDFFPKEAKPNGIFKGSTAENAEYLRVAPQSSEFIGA
# protocol-description: HTRF kinase activity assay
experimental-endpoint: pIC50
// scale note: pIC50 = -log10(conc_M); give the bare number

For EGFR^L858R/T790M (Homo sapiens, UniProt P00533, L858R/T790M), give pIC50 of the listed compound: COc1cc(N2CCC3(CCN(C)CC3)CC2)ccc1Nc1ncc(Cl)c(Nc2ccccc2P(C)(C)=O)n1
7.78

###

# system-under-test: MAP4K4 (Homo sapiens)
# Sequence (O95819 whole entry): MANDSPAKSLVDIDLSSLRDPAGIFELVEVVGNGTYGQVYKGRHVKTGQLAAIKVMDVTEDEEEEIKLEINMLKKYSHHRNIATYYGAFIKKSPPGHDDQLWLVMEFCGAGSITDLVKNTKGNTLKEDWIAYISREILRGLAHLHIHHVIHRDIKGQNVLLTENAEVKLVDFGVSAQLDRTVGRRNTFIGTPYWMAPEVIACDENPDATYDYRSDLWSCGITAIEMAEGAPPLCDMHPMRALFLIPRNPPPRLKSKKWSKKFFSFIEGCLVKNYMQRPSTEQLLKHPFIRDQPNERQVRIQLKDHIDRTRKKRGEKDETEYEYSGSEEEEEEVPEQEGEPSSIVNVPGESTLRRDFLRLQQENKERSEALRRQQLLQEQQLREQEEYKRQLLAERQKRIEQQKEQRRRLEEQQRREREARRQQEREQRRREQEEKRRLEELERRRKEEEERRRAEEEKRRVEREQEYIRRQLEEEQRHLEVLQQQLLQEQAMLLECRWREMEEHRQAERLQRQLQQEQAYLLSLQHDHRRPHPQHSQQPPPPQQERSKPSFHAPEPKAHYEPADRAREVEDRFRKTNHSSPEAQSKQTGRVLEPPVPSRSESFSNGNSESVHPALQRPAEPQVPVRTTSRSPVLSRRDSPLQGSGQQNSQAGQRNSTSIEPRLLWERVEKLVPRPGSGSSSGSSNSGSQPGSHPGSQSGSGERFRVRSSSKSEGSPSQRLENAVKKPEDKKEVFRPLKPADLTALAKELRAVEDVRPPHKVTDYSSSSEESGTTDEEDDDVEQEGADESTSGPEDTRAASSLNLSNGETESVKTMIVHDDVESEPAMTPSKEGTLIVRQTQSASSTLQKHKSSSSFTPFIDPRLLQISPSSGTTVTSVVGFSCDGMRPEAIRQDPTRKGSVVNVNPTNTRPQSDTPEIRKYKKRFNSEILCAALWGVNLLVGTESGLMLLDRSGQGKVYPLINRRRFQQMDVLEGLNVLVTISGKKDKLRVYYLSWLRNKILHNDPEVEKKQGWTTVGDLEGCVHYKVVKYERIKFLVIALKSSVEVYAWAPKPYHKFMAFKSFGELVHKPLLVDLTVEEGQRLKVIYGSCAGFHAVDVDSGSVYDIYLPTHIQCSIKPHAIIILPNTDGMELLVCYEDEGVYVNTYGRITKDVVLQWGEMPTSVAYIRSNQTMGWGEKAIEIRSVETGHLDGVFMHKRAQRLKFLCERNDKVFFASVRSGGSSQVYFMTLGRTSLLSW
experimental-endpoint: pIC50
// scale note: pIC50 = -log10(conc_M); give the bare number

COc1cc(N2CCC(N3CCN(C)CC3)CC2)ccc1Nc1ncc(Cl)c(Nc2ccccc2P(C)(C)=O)n1 [Brigatinib, reference compound] | 5.77

Answer with the recorded pIC50 of COc1cc(N2CCC3(CCN(C)CC3)CC2)ccc1Nc1ncc(Cl)c(Nc2ccccc2P(C)(C)=O)n1 [Iruplinalkib] only.
5.73

###

Consider the following IC50 values measured on GSK3 beta (Homo sapiens, UniProt P49841).
Sequence (P49841 whole entry): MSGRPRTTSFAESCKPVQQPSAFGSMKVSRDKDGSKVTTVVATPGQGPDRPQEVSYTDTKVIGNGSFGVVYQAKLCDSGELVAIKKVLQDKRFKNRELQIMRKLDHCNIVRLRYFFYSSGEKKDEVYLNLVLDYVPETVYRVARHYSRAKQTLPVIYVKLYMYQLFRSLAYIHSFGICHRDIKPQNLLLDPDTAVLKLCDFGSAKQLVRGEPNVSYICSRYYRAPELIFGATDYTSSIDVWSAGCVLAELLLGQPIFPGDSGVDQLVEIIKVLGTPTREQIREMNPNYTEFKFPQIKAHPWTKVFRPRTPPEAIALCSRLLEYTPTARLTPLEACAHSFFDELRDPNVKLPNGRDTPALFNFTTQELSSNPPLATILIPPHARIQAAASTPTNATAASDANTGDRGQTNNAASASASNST

COc1cc(N2CCC3(CCN(C)CC3)CC2)ccc1Nc1ncc(Cl)c(Nc2ccccc2P(C)(C)=O)n1 | > 10 µM

Answer with the recorded IC50 of COc1cc(N2CCC(N3CCN(C)CC3)CC2)ccc1Nc1ncc(Cl)c(Nc2ccccc2P(C)(C)=O)n1 [Brigatinib, reference compound] only.
> 10 µM

###

Each entry below carries its reported pIC50.
# system-under-test: PKA (Homo sapiens)
# protocol-description: Z'-LYTE kinase selectivity
# Type: biochemical
pIC50: −log10 of the molar value.

COc1cc(N2CCC(N3CCN(C)CC3)CC2)ccc1Nc1ncc(Cl)c(Nc2ccccc2P(C)(C)=O)n1 [Brigatinib, reference compound] | < 5.00

API: the following record is the query input.
Answer with the recorded pIC50 of COc1cc(N2CCC3(CCN(C)CC3)CC2)ccc1Nc1ncc(Cl)c(Nc2ccccc2P(C)(C)=O)n1 [Iruplinalkib] only.
< 5.00
